Numbers sourced from paper PMC5540273.

# System: TRKB;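 note: KINOMEscan kinase panel screen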
# settings: concentration: 1 μM, replicates: in singlicate; n = 1
reported.endpoint: %Inh (%)
The answer is to be given in %; state only the numeric part.

Check out these entries, answers already filled in.
>  <compound>
C[C@@H](Oc1cc(-n2cnc3ccc(NC(=O)NC(C)(C)C)cc32)sc1C(N)=O)c1ccccc1Cl [GSK346294]

>  <result.units>
%

>  <endpoint.result>
0

$$$$
>  <compound>
COc1ccc(Nc2nccc(N3CCC(NC(=O)Nc4cccc(C(C)=O)c4)C3)n2)cc1 (stereo not drawn) [GSK1379731]

>  <result.units>
%

>  <endpoint.result>
44

$$$$
>  <compound>
COCCNC(=O)c1ccc(-c2cc(C(=O)NC3CC3)cc(F)c2C)cc1 [GW868318]

>  <result.units>
%

>  <endpoint.result>
43

$$$$
>  <compound>
CCc1ccnc(/C=C/c2n[nH]c3cc(Sc4ccccc4C(=O)NC)ccc23)c1

>  <result.units>
%

>  <endpoint.result>
0

$$$$
>  <compound>
NCC(NC(=O)c1cc(-c2cn[nH]c2)c(-c2ccnc3[nH]ccc23)s1)c1ccccc1.O=C(O)C(F)(F)F.O=C(O)C(F)(F)F (stereo not drawn) [GSK1325775]

>  <result.units>
%

>  <endpoint.result>
57

$$$$
>  <compound>
O=c1cc(N2CCOCC2)nc2n(Cc3cccc(C(F)(F)F)c3)ccn12 [GSK2297543]

>  <result.units>
%

>  <endpoint.result>
0

$$$$

Now take the following compound into account.
## Input // %Inh lookup, key: c1ccc(-c2cc(-c3c[nH]nc3-c3ccccn3)ccn2)cc1 [GW576604]
## Output 25
